Target: Tyrosine-protein kinase Lck (Homo sapiens, UniProt P06239); further: in the data inactive means no Kd found up to 30 µM
Sequence (P06239 whole entry): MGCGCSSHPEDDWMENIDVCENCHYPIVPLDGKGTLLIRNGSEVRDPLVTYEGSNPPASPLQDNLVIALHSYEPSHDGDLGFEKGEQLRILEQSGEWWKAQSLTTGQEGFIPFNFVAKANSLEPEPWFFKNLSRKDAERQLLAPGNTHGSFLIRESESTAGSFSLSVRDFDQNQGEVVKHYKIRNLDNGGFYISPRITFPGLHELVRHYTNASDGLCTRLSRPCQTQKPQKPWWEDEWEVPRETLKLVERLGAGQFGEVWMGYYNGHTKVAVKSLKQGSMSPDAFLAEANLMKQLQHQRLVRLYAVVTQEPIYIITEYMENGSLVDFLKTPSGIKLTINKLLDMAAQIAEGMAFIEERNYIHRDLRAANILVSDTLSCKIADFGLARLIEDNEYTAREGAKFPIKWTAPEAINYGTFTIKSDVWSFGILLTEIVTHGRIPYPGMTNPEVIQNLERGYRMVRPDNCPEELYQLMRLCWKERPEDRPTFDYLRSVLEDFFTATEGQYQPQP
The source made the active and inactive calls.
Classes used: TRUE (active), FALSE (inactive)

{"compound": "O=c1sn(-c2cccc3ccccc23)c(=O)n1Cc1ccccc1", "system.under.test": "Tyrosine-protein kinase Lck (Homo sapiens, UniProt P06239)", "label.value": "FALSE"}
{"compound": "Cc1ccc(-n2nc(C(C)(C)C)cc2NC(=O)NCc2cc(F)ccc2Oc2ccc3c(cnn3CCO)c2)cc1", "system.under.test": "Tyrosine-protein kinase Lck (Homo sapiens, UniProt P06239)", "label.value": "FALSE"}
{"compound": "CN1N=C(N)c2cn([C@@H]3O[C@H](COP(=O)(O)O)[C@@H](O)[C@H]3O)c3ncnc1c23 [TRICIRIBINE PHOSPHATE]", "system.under.test": "Tyrosine-protein kinase Lck (Homo sapiens, UniProt P06239)", "label.value": "FALSE"}
{"compound": "COc1cc2nccc(Oc3ccc(NC(=O)NC4CC4)c(Cl)c3)c2cc1C(N)=O", "system.under.test": "Tyrosine-protein kinase Lck (Homo sapiens, UniProt P06239)", "label.value": "FALSE"}
{"compound": "C[C@@H](Nc1cc(F)cc(F)c1)c1cc(C(=O)N(C)C)cc2c(=O)cc(N3CCOCC3)oc12", "system.under.test": "Tyrosine-protein kinase Lck (Homo sapiens, UniProt P06239)", "label.value": "FALSE"}
{"compound": "O=C(Nc1ccc(-c2ccnc(Nc3ccc(N4CCOCC4)cc3)n2)cc1)C1CCCN1 (stereo unspecified)", "system.under.test": "Tyrosine-protein kinase Lck (Homo sapiens, UniProt P06239)", "label.value": "FALSE"}
{"compound": "Cc1cc2c(F)c(Oc3ncnn4cc(OC[C@@H](C)OC(=O)[C@H](C)N)c(C)c34)ccc2[nH]1 [BRIVANIB ALANINATE]", "system.under.test": "Tyrosine-protein kinase Lck (Homo sapiens, UniProt P06239)", "label.value": "FALSE"}
{"compound": "CNC(=O)CN1CCC(Oc2cc3c(Nc4cccc(Cl)c4F)ncnc3cc2OC)CC1", "system.under.test": "Tyrosine-protein kinase Lck (Homo sapiens, UniProt P06239)", "label.value": "FALSE"}
{"compound": "COc1cc(N2CCC(N3CCN(C)CC3)CC2)ccc1Nc1ncnc(Nc2ccccc2S(=O)(=O)C(C)C)n1", "system.under.test": "Tyrosine-protein kinase Lck (Homo sapiens, UniProt P06239)", "label.value": "TRUE"}
{"compound": "CCS(=O)(=O)N1CC(CC#N)(n2cc(-c3ncnc4[nH]ccc34)cn2)C1", "system.under.test": "Tyrosine-protein kinase Lck (Homo sapiens, UniProt P06239)", "label.value": "FALSE"}
{"compound": "COC(=O)[C@@]1(O)C[C@H]2O[C@]1(C)n1c3ccccc3c3c4c(c5c6ccccc6n2c5c31)C(=O)NC4 [K-252A]", "system.under.test": "Tyrosine-protein kinase Lck (Homo sapiens, UniProt P06239)", "label.value": "FALSE"}
{"compound": "CC[C@@H]1C(=O)N(C)c2cnc(Nc3ccc(C(=O)N[C@H]4CC[C@H](N5CCN(CC6CC6)CC5)CC4)cc3OC)nc2N1C(C)C", "system.under.test": "Tyrosine-protein kinase Lck (Homo sapiens, UniProt P06239)", "label.value": "FALSE"}
{"compound": "COc1cc(OC)c(/C=C/S(=O)(=O)Cc2ccc(OC)c(NCC(=O)O)c2)c(OC)c1", "system.under.test": "Tyrosine-protein kinase Lck (Homo sapiens, UniProt P06239)", "label.value": "FALSE"}
{"compound": "CNC(=O)c1ccc(-c2cnc3ncc(Cc4ccc5ncccc5c4)n3n2)cc1F", "system.under.test": "Tyrosine-protein kinase Lck (Homo sapiens, UniProt P06239)", "label.value": "FALSE"}
{"compound": "CCN1CCN(Cc2ccc(-c3cc4c(N[C@H](C)c5ccccc5)ncnc4[nH]3)cc2)CC1", "system.under.test": "Tyrosine-protein kinase Lck (Homo sapiens, UniProt P06239)", "label.value": "FALSE"}
{"compound": "Cc1cc([C@@H](C)Nc2ccccc2C(=O)O)c2nc(N3CCOCC3)cc(=O)n2c1", "system.under.test": "Tyrosine-protein kinase Lck (Homo sapiens, UniProt P06239)", "label.value": "FALSE"}
